Ref: patent US20230218735A1

- Tested system: C. difficile toxin A (Clostridium difficile, UniProt P16154 1-2710)
- Sequence (P16154 whole entry): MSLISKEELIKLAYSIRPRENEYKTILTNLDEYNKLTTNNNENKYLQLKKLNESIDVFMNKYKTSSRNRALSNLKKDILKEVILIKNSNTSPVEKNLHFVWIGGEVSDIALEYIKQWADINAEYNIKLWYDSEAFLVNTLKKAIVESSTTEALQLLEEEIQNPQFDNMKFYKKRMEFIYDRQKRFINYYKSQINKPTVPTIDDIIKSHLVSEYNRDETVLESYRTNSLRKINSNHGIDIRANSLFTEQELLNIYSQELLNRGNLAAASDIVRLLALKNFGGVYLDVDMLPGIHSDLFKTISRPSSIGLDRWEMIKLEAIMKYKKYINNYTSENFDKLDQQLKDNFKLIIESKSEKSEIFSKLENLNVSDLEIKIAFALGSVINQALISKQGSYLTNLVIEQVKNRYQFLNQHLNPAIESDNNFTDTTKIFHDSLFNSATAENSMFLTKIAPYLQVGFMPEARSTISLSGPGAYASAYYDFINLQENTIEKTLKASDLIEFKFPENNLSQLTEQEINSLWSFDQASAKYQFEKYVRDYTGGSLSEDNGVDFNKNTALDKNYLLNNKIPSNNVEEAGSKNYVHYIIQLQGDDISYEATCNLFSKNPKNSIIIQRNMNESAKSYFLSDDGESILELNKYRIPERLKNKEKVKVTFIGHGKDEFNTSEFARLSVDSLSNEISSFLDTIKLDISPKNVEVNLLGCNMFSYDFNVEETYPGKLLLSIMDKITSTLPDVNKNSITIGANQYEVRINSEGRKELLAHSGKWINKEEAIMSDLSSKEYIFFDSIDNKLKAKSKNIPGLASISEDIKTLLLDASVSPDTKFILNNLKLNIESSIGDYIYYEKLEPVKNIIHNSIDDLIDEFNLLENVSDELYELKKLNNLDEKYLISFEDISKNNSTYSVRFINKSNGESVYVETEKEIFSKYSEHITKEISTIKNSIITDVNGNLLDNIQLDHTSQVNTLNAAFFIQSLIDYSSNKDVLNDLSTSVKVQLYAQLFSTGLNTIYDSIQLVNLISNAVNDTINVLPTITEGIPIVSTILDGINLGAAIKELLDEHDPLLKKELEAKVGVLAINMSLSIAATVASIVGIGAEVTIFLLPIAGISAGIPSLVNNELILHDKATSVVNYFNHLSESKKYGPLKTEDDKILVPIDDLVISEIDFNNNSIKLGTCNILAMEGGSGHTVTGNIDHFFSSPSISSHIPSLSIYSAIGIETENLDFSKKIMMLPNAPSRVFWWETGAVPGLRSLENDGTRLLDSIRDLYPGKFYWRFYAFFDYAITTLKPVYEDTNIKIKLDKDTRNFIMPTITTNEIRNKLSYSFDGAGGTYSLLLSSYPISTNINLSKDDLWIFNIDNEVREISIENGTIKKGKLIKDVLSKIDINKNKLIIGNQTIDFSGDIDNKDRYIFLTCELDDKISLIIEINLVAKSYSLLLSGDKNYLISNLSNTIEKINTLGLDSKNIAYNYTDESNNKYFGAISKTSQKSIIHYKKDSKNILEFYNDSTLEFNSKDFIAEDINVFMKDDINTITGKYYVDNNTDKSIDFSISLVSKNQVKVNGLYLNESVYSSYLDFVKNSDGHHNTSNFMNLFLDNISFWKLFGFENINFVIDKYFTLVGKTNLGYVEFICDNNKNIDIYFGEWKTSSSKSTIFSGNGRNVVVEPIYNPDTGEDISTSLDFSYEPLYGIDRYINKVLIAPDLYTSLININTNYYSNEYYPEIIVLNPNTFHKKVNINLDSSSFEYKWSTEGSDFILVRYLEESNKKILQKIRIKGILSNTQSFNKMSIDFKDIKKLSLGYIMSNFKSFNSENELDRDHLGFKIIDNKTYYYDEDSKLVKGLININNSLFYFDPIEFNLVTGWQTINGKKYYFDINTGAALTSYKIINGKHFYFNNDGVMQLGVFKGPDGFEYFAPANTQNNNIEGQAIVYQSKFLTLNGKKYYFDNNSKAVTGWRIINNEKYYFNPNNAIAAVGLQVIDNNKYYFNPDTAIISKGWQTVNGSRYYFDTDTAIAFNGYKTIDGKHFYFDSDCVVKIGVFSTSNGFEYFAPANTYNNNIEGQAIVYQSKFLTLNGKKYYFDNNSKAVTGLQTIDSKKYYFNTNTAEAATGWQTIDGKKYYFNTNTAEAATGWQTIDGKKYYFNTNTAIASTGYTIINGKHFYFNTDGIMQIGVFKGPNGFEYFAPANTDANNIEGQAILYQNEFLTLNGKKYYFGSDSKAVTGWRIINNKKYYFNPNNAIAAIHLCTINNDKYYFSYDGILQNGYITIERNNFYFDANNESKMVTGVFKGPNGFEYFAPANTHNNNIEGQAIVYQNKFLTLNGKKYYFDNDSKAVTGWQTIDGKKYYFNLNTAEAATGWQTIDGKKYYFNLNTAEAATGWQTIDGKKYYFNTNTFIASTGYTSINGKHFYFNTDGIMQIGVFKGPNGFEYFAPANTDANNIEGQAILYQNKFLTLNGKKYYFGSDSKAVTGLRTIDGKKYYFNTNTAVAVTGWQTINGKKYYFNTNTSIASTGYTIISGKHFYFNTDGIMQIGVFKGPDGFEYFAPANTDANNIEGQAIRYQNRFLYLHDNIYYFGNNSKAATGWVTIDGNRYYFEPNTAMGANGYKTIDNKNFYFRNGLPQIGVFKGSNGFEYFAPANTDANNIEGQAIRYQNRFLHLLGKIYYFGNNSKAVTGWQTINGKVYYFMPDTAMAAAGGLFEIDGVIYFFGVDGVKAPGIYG
- Experimental details: cell-based or functional assay
Under this convention, yes denotes EC50 TcdA [RLU], toxin neutralization assay (TNA) on IMR90 cells strictly below 30000 RLU and no denotes EC50 TcdA [RLU], toxin neutralization assay (TNA) on IMR90 cells at or above 30000 RLU.

Binder: hCDIFA-20 (antibody, V domains shown) VH: EVQLVQSGAEVRIPGASVKVSCKASGFTFNDYYIHWVRQAPGQGLEWMGWINAHNGVTSYAQNFQDRVTMTRDTSITTAYMDLSRLRSDDTAVYYCARDCSTSSCFDHWGQGSLVTVSS VL: SYELTQPPSLSVAPGKTAKITCGGNNIGSKGVHWYQQRPGQAPVLVIYYNADRPSGIPERFSGSNSGNTATLTISRVEAGDEADYFCQVWDGDSAHRVFGGGTKLTVLG
Assigned category: yes
--
Binder: hCDIFA-13 (antibody, V domains shown) VH: QVQLVQSGAEVKKPGASVTVSCRTSGYTFTNDYVHWVRQAPGQGLEWVGLINPSGGNTVYAQSFQGRVTMTRDTSTSTVYMELSSLRSEDTAVYYCARVVHDYGKFDPWGQGTPVTVSS VL: SYELTQPASVSGSPRQSITISCTGTSSDVGNYNLVSWYQQYPGKAPRLIIFEVRQRPSGVSNRFSGSKSGNTASLTISGLQAADEADYYCCSYAGRSIWVFGGGTKLTVLG
Assigned category: yes
--
Binder: hCDIFA-36 (antibody, V domains shown) VH: QVQLVQSGGGLVQPGRSLRLSCAASGFAFDDYALHWVRQVPGKGLEWVSGISWNSDSIAYADSVKGRFTISRDNAKNSLYLQMNGLRAEDTALYYCAKDRTIASAGIPDEFQHWGQGTLVTVSS VL: DIVMTQSPATLSVSPGERATLSCRASQSVSYKVAWYQQKPGQAPRLLIYGASTRDTGIPARFSGSGSGTDFTLTISSLQSEDSAVYYCQQYSNWPTTFGQGTKVEIKR
Assigned category: no
--
Binder: hCDIFA-24 (antibody, V domains shown) VH: QVQLVQSGGGVVQPGRSLRLSCAASGFSFSTHGMHWVRQAPGKGLEWVAVISYDGSNKYYADSVKGRFTISRDNSKNTVYLQMNSLRAEDTAVFYCAKPRDNYYYYGMDVWGQGTTVTVSS VL: AIRMTQSPSSLSASTGNRVTITCRASQGISSYLAWYQQKPGKAPNLLIYAASTLQSGVPSRFTGSGSGTDFTLTISRLHSENFATYYCQQYFNYPRTFGQGTRLEIKR
Assigned category: yes
--
Binder: hCDIFA-4 (antibody, V domains shown) VH: QVQLQESGPGLVKPSGTLSLTCAVSGGSISSINWWSWVRQPPGKGLEWIGEIYHSGSTNYNPSLKSRVTISVDKSKNQFSLKLSSVTAADTAVYYCAREGKVDSSSQGNWFDPWGQGTLVTVSS VL: QPVLTQPRSVSGSPGQSVTISCTGTSSDVGGYNYVSWYQQHPGKAPKFMIYDVSKRPSGVPDRFSGSKSGNTASLTISGLQAEDEADYYCCSYAGTYTFYVFGTGTKVTVLG
Assigned category: yes
--
Binder: hCDIFA-51 (antibody, V domains shown) VH: EVQLLESGGGVVQPGRSLRLSCAASGFTFSNYGMHWVRQAPGKGLEWVAVIWYDGSNKYYADSVKGRFTISRDNSKNMVYLQMNSLRGADTAVYYCAGDRHLGLWGYYYYYYAMDVWGQGTTVTVSS VL: QAVVTQPPSVSAAPGQRVTISCSGSSSNIGKNYVSWYQHLPGTAPKLLIYESNKRPSGIPDRFSGSKSGTSATLGITGLQTGDEADYYCGTWDSSLSAGLFGGGTKVTVLG
Assigned category: yes
--
Binder: hCDIFA-37 (antibody, V domains shown) VH: QVQLLESGPGLVKTSGTLSLTCSVSGDSVSTNNWWTWVRQPPGKGLEWIGEIYYNGNTIYNPSFKSRVTISVNRSKNHFSLKLNSVTAADRAVYYCARRTWNDVGPFDYWGQGILVTVSS VL: DIVMTQSPSSLSASIGDRVIITCRASQNINRYLNWYQQTAGKAPKLLIYGTSNLQSGVPSRFSGSGSGSGTDFTLTISSLQPEDFATYYCHQSYRTPQTFGQGTKLEIKR
Assigned category: no
--
Binder: hCDIFA-8 (antibody, V domains shown) VH: QVQLVESGGGLVKPGGSLRLSCAASGFTFSTSSMNWVRQAPGKGLEWVSSINTSGDYIYYTDSVKGRFTISRDNAKNSLYLQMNSLRAEDTAVYYCARDLGTWRDYWGQGTLVTVSS VL: QSVLTQPASVSGSPGQSITISCTGTSSDVGSYNLVSWYHQHPGKAPKLIIYEVSKRPSGVSNRFSGSKSGNTASLTISGLQAEDEADYYCYSYAGSSAFAWVFGTGTKLTVLG
Assigned category: no
